Test system: K-562 leukemia
MEASUREMENT_DESCRIPTION: NCI tumour cell line growth inhibition, 48 h
OBSERVED_PROPERTY: TGI

// known answers, use as guide
- COc1cccc(CCn2c(N)c(-c3ccccc3)c3ccc([N+](=O)[O-])cc3c2=O)c1: 21 µM
- CC1=C(Br)C(Br)=C(C)S1=O: > 100 µM
- c1ccc2c3ccn4cc5c(cc4c-3nc2c1)CCCC5: 12.6 µM
- N#CC(C(=O)/C(=N/Nc1nc(=S)[nH]n1N)C(C#N)c1ccccc1)c1ccccc1 (stereo unspecified): > 100 µM
- O/N=C\c1c(O)ccc2ccccc12: > 100 µM
- COc1ccc(C(=O)C(CO)Oc2ccccc2OC)cc1OC (stereo unspecified): > 100 µM
- COC(=O)C12C3C4C5(C(=O)OC)C(C1C35C(=O)N(C(C)C)C(C)C)C42C(=O)N(C(C)C)C(C)C (stereo unspecified): > 50 µM
- CCCCCc1c(C)[nH]c(/C=C2\N=C(c3ccc[nH]3)C=C2CC)c1C: 0.176 µM

For each listed entry, give its TGI.
1. CCOC(=O)C1N(S(=O)(=O)c2ccc(C)cc2)CCC12C(c1ccc(OC)cc1)NC1CCCCC12 (stereo unspecified)
2. O=C(Nc1cccc(Cl)c1Cl)c1cccc(NC2=C(Cl)C(=O)N(Cc3ccccc3)C2=O)c1
3. CC(=O)Oc1ccc(Nc2c3ccccc3nc3ccccc23)cc1

Result:
> 100 µM
37.5 µM
> 100 µM
